Test name: Retention time of the compound by UPLC-ESI-MS method
Type: physicochemical
Decision: Retention_time >= 20 min yields T, all other cases yield F.

COc1c(O)ccc2c1O/C(=C\c1ccc(O)c(O)c1)C2=O	T

[in] Could you please find out whether COc1c(O[C@@H]2O[C@H](CO)[C@@H](O)[C@H](O)[C@H]2O)ccc2c1O/C(=C\c1ccc(O)c(O)c1)C2=O has Retention_time that meets 20 min or exceeds it?
[out] F

[in] Determine whether this compound has Retention_time no lower than 20 min: COc1c(O)ccc2c1O[C@H](c1ccc(O)c(O)c1)CC2=O
[out] F

[in] API: above_or_equal(metric=Retention_time, cutoff=20 min) for item COc1c(O)ccc(C(=O)/C=C/c2ccc(O)c(O)c2)c1O
[out] T

[in] Is reported Retention_time greater than or equal to 20 min here: COc1ccc(/C=C/C(=O)c2ccc(O)c(OC)c2O)cc1O
[out] T
